biological target: human ether-à-go-go-related gene (hERG) potassium channel (human, UniProt Q12809); assay: primary screen, population patch clamp on CHO cells stably expressing hERG; higher = less effect of the substance;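 note: peak tail current of the secondary pulse compared with the same well before compound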
Sequence (Q12809 whole entry, looked up): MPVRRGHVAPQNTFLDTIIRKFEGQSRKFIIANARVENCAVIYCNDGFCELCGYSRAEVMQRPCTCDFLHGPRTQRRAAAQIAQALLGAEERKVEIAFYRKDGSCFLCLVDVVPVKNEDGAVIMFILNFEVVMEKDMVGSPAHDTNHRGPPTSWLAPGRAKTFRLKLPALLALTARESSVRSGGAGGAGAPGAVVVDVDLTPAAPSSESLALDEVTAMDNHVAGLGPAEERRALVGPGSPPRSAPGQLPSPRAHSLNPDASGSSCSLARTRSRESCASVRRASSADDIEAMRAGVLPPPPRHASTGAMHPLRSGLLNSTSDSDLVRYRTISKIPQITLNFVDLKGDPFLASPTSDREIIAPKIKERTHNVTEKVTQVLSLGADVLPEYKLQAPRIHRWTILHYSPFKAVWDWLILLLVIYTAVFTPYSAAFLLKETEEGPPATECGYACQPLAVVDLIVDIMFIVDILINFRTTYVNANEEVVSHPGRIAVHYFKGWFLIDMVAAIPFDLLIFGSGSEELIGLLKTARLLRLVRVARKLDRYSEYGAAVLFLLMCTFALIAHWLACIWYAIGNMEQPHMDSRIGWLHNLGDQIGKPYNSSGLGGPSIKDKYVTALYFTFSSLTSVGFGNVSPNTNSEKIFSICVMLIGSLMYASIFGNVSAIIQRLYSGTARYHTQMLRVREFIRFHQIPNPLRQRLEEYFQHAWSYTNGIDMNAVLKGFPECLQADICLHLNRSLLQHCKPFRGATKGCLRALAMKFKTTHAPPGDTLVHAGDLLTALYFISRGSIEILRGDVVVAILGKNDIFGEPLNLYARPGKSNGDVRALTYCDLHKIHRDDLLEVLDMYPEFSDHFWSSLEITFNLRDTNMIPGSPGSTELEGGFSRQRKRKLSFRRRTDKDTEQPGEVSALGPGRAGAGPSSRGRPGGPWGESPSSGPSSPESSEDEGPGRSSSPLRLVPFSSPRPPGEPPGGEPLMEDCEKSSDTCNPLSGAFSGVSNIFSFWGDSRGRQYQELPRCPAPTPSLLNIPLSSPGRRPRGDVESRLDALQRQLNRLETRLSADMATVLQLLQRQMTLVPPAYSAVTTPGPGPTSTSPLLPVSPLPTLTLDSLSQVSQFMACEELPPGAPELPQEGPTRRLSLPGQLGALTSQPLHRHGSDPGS
Screen size: about 310,000 compounds; about 14,000 (4.5%) showed an effect of 50% or more. The effect is printed as a negative number. The entries come from a sample that favours strong results as a whole.
measured metric: hERG current change (%, negative = inhibition) at 10uM (%)
Entry rule: numbers only, all in %.

Cl.O=C(CN1CCCC1)Nc1cccc(Cl)c1 : -3.66

// query State its hERG current change (%, negative = inhibition) at 10uM: "O=C(O)CSCC(=O)Nc1cccc(C(F)(F)F)c1"
// result -6.67

// query Look up and state reported hERG current change (%, negative = inhibition) at 10uM for "O=C(CN1CCN(Cc2ccccc2)CC1)Nc1cccc(Cl)c1"
// result -60.7

// query Quote hERG current change (%, negative = inhibition) at 10uM reported for "Cl.O=C(CN1CCCCC1)Nc1cccc(Cl)c1" please.
// result -28.8

// query Return value of hERG current change (%, negative = inhibition) at 10uM for input "CCN(CC)C(=S)SCC(=O)Nc1cccc(C(F)(F)F)c1" , no commentary.
// result -10

// query State, in one line, measured hERG current change (%, negative = inhibition) at 10uM of "CCNc1nc(NCC)nc(Oc2ccc(C(=O)OC)cc2)n1"
// result -5.78
